# System: Rattus norvegicus
# EXPERIMENTAL PROTOCOL: In vivo clearance in Sprague-Dawley rat
MEASUREMENT LABEL: CL
# output: numeric value plus its unit

Worked cases, answers included:
MOL | SYSTEM TESTED | CL
COc1cc(Nc2nccc(Nc3cnc4ccccc4c3)n2)ccc1OCCCN1CCCCC1 | Rattus norvegicus | 31.7 mL/min/kg
COc1cc(Nc2nccc(Nc3cnc4ccccc4c3)n2)ccc1N1CCOCC1 | Rattus norvegicus | 48.3 mL/min/kg

In the following, a different compound is considered.
I would be grateful if you could share the reported CL for COc1cc(Nc2nccc(Nc3ccc4ccccc4c3)n2)cc(OC)c1OC .
40 mL/min/kg
